Measured values drawn from patent US7449495B2 for this set.

Test system: HL60 acute promyelocytic leukaemia cell line
Test: Cytotoxicity test (sulphorodamine B), HL-60
Assay type: cell-based
Conditions: Homo sapiens, 24 h incubation, survival 48 h after removal
quantity.name: IC50 (nM)
Express it in nM; write the number only.

Report IC50 for `O=C(O)/C=C/c1ccc(-c2ccc(O)c(C34CC5CC(CC(C5)C3)C4)c2)cc1` please. 200

###

Test system: Human ovarian carcinoma IGROV-1
Experiment: Cytotoxicity test (sulphorodamine B), IGROV-1
Assay type: cell-based
Conditions: 24 h incubation, survival 48 h after removal
quantity.name: pIC50
Lab note: report pIC50 as minus log10 of the concentration in molar units, number only.

Return pIC50 measured with Human ovarian carcinoma IGROV-1 given this compound: O=C(O)/C=C/c1ccc(-c2ccc(O)c(C34CC5CC(CC(C5)C3)C4)c2)cc1 [ST1926] 6.64
